Data provenance: ChEMBL document CHEMBL5325424

# TEST DETAILS: Cytotoxicity against mouse RAW264.7 cells incubated for 48 hrs by MTT assay
# Type: toxicity, cell-based
REPORTED ENDPOINT: log10 of CC50 at 48 h (log10 of the value in µM)
Lab note - CC50 at 48 h converted to log10 from values in µM.

Query N/C(S)=N/N=C/c1ccccn1 yields log10 of CC50 at 48 h of 0.94

Item: CC1(C)S/C(=N/N=C/c2ccccn2)N(c2ccccc2)C1=O | log10 of CC50 at 48 h: 2.16

Value of measured log10 of CC50 at 48 h for the entry C/C(=N\NC(=S)Nc1ccccc1)c1ccccn1 : 0.76

For S=C(N/N=C/c1ccccn1)Nc1ccccc1 the compound record lists log10 of CC50 at 48 h as 0.78
